Taken from paper PMC2705653.

Biological target: T1, Swi6 V82E (S. pombe, UniProt P40381 1-328, V82E)
T1 sequence (looked up): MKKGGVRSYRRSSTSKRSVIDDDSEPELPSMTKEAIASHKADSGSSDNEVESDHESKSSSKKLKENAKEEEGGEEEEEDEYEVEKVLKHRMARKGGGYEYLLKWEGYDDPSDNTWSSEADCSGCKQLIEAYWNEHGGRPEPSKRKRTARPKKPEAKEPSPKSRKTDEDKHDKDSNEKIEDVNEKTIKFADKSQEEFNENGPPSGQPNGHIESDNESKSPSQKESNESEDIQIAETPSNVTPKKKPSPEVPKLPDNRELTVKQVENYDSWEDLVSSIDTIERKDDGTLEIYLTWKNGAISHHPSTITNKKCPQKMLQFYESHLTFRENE
Assay: fluorescence polarisation
recorded endpoint: Kd (nM)
Quick reminder: number only, in nM, skip the unit.

- binder: "ARTKQTARKSTGGKAY (trimethyl-lysine at 9) [H3K9me3 peptide (fluorescence polarization)]"
  recorded endpoint: "Kd"
  assay value: 1040

Could you now look at the following binder, please?
Kd for ARTKQTARKSTGGKAY (dimethyl-lysine at 9; fluorescein (position not given)) [fluorescein labeled H3K9me2 peptide] ? 2190
